molecules and their reported IC50
# target_or_test_system: Kappa-type opioid receptor (Homo sapiens, UniProt P41145)
# Sequence (P41145 whole entry): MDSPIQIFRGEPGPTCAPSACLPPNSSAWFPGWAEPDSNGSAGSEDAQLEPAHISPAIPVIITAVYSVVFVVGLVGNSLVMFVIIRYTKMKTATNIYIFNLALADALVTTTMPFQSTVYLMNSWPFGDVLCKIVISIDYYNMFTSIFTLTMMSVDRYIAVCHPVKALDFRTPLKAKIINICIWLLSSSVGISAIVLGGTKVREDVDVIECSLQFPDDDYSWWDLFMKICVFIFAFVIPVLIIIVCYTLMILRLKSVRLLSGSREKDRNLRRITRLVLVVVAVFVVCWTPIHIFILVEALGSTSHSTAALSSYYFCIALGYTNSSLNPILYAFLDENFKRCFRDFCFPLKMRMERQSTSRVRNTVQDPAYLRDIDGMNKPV
# test_description: Agonist activity at human KOR expressed in HEK293 cells assessed as inhibition of forskolin-induced adenylyl cyclase-mediated cAMP accumulation after 30 mins by HTRF assay
Give a bare numeral; the unit nM is implied.

Solved cases (2 shown):
Cc1ccc(C(=O)NCC2c3ccccc3CCN2C)cc1C (stereo not drawn)    80
Cc1ccc(C(=O)NCC2c3ccccc3CCN2CCCl)cc1 (stereo not drawn)    2940

Requested read-out: IC50. Entry: O=C(NCC1NCCc2ccccc21)c1ccc(Cl)c(Cl)c1 (stereo not drawn)
810

====

# Lookup of reported Imax keyed by entry
# target_or_test_system: Kappa-type opioid receptor (Homo sapiens, UniProt P41145)
# test_description: Agonist activity at human KOR expressed in HEK293 cells assessed as inhibition of forskolin-induced adenylyl cyclase-mediated cAMP accumulation after 30 mins by HTRF assay
# Type: functional, cell-based
Report the value in % with no unit label.

Cc1ccc(C(=O)NCC2NCCc3ccccc32)cc1C (configuration not stated)    27
O=C(NCC1NCCc2ccccc21)c1ccc(Cl)c(Cl)c1 (configuration not stated)    27.5
O=C(NCC1NCCc2ccccc21)c1ccc(F)cc1 (configuration not stated)    38.9
Cc1ccc(C(=O)NCC2c3ccccc3CCN2C)cc1 (configuration not stated)    27.1
CCc1ccc(C(=O)NCC2NCCc3ccccc32)cc1 (configuration not stated)    29
Cc1ccc(C(=O)NCC2c3ccccc3CCN2C)cc1C (configuration not stated)    34.6

Need Imax, item O=C(NCC1NCCc2ccccc21)c1ccc(Cl)cc1 (configuration not stated)
35.1

May I ask what Imax has been recorded for Cc1cccc(C(=O)NCC2NCCc3ccccc32)c1 (configuration not stated) ?
26.6

Could you tell me which Imax is on file for O=C(NCC1NCCc2ccccc21)c1ccc(OC(F)(F)F)cc1 (configuration not stated) ?
38.2

Give its Imax value. Item: CCCCN1CCc2ccccc2C1CNC(=O)c1ccc(C)cc1 (configuration not stated)
24.1

Need Imax of CN1CCc2ccccc2C1CNC(=O)c1ccc(Cl)c(Cl)c1 (configuration not stated) , thanks.
28.3

May I ask what Imax has been recorded for COc1ccc(C(=O)NCC2NCCc3ccccc32)cc1 (configuration not stated) ?
21.8

====

Property: Imax; scope: individual compounds
# target_or_test_system: Delta-type opioid receptor (Homo sapiens, UniProt P41143)
# Sequence (P41143 whole entry): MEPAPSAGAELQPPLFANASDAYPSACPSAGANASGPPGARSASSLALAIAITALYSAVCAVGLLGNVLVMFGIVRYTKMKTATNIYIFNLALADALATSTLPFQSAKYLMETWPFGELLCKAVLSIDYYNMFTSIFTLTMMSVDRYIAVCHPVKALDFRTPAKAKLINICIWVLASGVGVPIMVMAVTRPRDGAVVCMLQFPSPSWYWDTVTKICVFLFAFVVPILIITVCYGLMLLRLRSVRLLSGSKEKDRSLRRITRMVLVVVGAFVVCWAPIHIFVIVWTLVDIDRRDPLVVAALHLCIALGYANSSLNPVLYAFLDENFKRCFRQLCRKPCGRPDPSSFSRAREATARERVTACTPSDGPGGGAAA
# test_description: Agonist activity at human DOR expressed in HEK293 cells assessed as inhibition of forskolin-induced adenylyl cyclase-mediated cAMP accumulation after 30 mins by HTRF assay
# Assay type: functional, cell-based
Answer in %, number only, no unit symbol.

O=C(NCC1NCCc2ccccc21)c1ccc(Cl)cc1 (stereo not given)    24.1
O=C(NCC1NCCc2ccccc21)c1ccc(OC(F)(F)F)cc1 (stereo not given)    22.7
O=C(NCC1NCCc2ccccc21)c1ccc(F)cc1 (stereo not given)    22
O=C(NCC1NCCc2ccccc21)c1cccc(Cl)c1 (stereo not given)    21.1

# Imax lookup, item CCc1ccc(C(=O)NCC2c3ccccc3CCN2C)cc1 (stereo not given)
22.1

====

# target_or_test_system: Mu-type opioid receptor (Homo sapiens, UniProt P35372)
# Sequence (P35372 whole entry): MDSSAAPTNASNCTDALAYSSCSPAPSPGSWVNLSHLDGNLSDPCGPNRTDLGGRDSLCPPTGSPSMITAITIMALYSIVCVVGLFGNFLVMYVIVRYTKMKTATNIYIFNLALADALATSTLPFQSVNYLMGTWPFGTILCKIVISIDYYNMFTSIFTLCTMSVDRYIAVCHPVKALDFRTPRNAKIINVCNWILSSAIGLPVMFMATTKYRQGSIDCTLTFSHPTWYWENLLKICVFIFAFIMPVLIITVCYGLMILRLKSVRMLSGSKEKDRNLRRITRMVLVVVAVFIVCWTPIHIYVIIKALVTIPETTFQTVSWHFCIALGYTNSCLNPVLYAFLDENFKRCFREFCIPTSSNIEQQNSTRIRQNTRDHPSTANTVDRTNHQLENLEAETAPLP
# test_description: Agonist activity at human MOR expressed in HEK293 cells assessed as inhibition of forskolin-induced adenylyl cyclase-mediated cAMP accumulation after 30 mins by HTRF assay
measured_attribute: IC50 (nM)
Answer format: numeric, nM implied, no suffix.

O=C(NCC1NCCc2ccccc21)c1ccc(F)cc1 (stereo not drawn)    830
O=C(NCC1NCCc2ccccc21)c1ccc(Cl)cc1 (stereo not drawn)    220

Then this compound:
Please give the measured IC50 for this compound: CCc1ccc(C(=O)NCC2c3ccccc3CCN2C)cc1 (stereo not drawn)
3280

====

# test_description: Drug uptake in […] mouse plasma at 3 mg/kg, iv measured after 0.8 hrs by LC-MS/MS analysis
# Format: ADME, organism-based
Reported concentration at 0.8 h by item:
Form entry: value (ng/mL) — number only.

Would you please look over these solved cases?
O=C(NCC1c2ccccc2CCN1S(=O)(=O)c1ccc(Br)cc1OC(F)(F)F)C1CCCCC1 (stereo not drawn)    1290
CN1CCc2ccccc2C1CNC(=O)c1ccc(Cl)c(Cl)c1 (stereo not drawn)    2610

Which concentration at 0.8 h is reported for this compound? Cc1ccc(C(=O)NCC2c3ccccc3CCN2C)cc1C (stereo not drawn)
1460

====

# target_or_test_system: Mu-type opioid receptor (Homo sapiens, UniProt P35372)
# test_description: Agonist activity at human MOR expressed in HEK293 cells assessed as inhibition of forskolin-induced adenylyl cyclase-mediated cAMP accumulation after 30 mins by HTRF assay
pIC50: −log10 of the molar value.
Given measured pIC50, output label 1 if it is greater than or equal to 6 and label 0 if not.

Entry Cc1ccc(C(=O)NCC2NCCc3ccccc32)cc1C (configuration not stated) : is its pIC50 no less than 6?
label 1

Record COc1ccc(C(=O)NCC2NCCc3ccccc32)cc1 (configuration not stated) ; criterion: pIC50 no lower than 6. Met?
label 0

Is pIC50 for Cc1ccc(C(=O)NCC2c3ccccc3CCN2C)cc1 (configuration not stated) at or above 6?
label 1

Hi, just wondering whether CN1CCc2ccccc2C1CNC(=O)c1ccc(Cl)c(Cl)c1 (configuration not stated) shows pIC50 of 6 or higher.
label 1

Could you tell me if the measured pIC50 of CCc1ccc(C(=O)NCC2NCCc3ccccc32)cc1 (configuration not stated) reaches 6 or more?
label 1

====

# test_description: Ratio of drug level in brain to plasma in […] mouse at 3 mg/kg, iv measured after 0.8 hrs
# Assay type: ADME, organism-based
# study_conditions: read-out: BPR
In this section, each of the compounds is paired with its reported Kp at 0.8 h.
No unit in the answer, please; the number alone is enough.

Can you share its Kp at 0.8 h? I mean this compound: CN1CCc2ccccc2C1CNC(=O)c1ccc(Cl)c(Cl)c1 (stereo not drawn)
4.5

For the compound shown here, O=C(NCC1c2ccccc2CCN1S(=O)(=O)c1ccc(Br)cc1OC(F)(F)F)C1CCCCC1 (stereo not drawn) , give the reported Kp at 0.8 h.
1.1

Which Kp at 0.8 h value is on record for Cc1ccc(C(=O)NCC2c3ccccc3CCN2C)cc1C (stereo not drawn) ?
5.1

====

Entries and their Imax values follow.
# target_or_test_system: Mu-type opioid receptor (Homo sapiens, UniProt P35372)
# test_description: Agonist activity at human MOR expressed in HEK293 cells assessed as inhibition of forskolin-induced adenylyl cyclase-mediated cAMP accumulation after 30 mins by HTRF assay
# Assay type: functional, cell-based
Provide the reading as a plain figure in %.

Please review the entries below; each comes with its answer.
CCc1ccc(C(=O)NCC2NCCc3ccccc32)cc1 (stereo not given)    63.9
CN1CCc2ccccc2C1CNC(=O)c1ccc(Cl)c(Cl)c1 (stereo not given)    69.5
C[C@@H](NC(=O)[C@@H](N)Cc1ccc(O)cc1)C(=O)NCC(=O)N(C)[C@@H](Cc1ccccc1)C(=O)NCCO    82.4
O=C(NCC1NCCc2ccccc21)c1cccc(Cl)c1 (stereo not given)    78.2
Cc1ccc(C(=O)NCC2c3ccccc3CCN2CCCl)cc1 (stereo not given)    67.8

For Cc1cccc(C(=O)NCC2NCCc3ccccc32)c1 (stereo not given) , what is its reported Imax?
68.3

Please look up its Imax: Cc1ccc(C(=O)NCC2c3ccccc3CCN2C)cc1 (stereo not given)
72.4

Please look up its Imax: CCc1ccc(C(=O)NCC2c3ccccc3CCN2C)cc1 (stereo not given)
61.9

Using the record for CCCCN1CCc2ccccc2C1CNC(=O)c1ccc(C)cc1 (stereo not given) , report its Imax.
69.3

// query Imax value for entry Cc1ccc(C(=O)NCC2c3ccccc3CCN2C)cc1C (stereo not given)
69.3

====

# target_or_test_system: Mu-type opioid receptor (Homo sapiens, UniProt P35372)
# test_description: Displacement of [3H]naloxone from recombinant human MOR expressed in HEK cell membranes incubated for 60 mins
measured_attribute: Ki (nM)
The reply should contain only the number, in nM.

# count of solved cases: 2
Cc1ccc(C(=O)NCC2NCCc3ccccc32)cc1C (stereo not drawn)    36.4
Cc1ccc(C(=O)NCC2NCCc3ccccc32)cc1 (stereo not drawn)    6.47

Item under review: CN1CCc2ccccc2C1CNC(=O)c1ccc(Cl)c(Cl)c1 (stereo not drawn) . Reported Ki?
6.91

What value of measured Ki is listed for CCc1ccc(C(=O)NCC2NCCc3ccccc32)cc1 (stereo not drawn) ?
4.65

Using the record for Cc1ccc(C(=O)NCC2c3ccccc3CCN2C)cc1 (stereo not drawn) , report its Ki.
5.28

Entry under review: CCc1ccc(C(=O)NCC2c3ccccc3CCN2C)cc1 (stereo not drawn) . Reported Ki?
2.27

# query: Ki of entry Cc1ccc(C(=O)NCC2c3ccccc3CCN2C)cc1C (stereo not drawn)
30.8

// lookup Ki for O=C(NCC1NCCc2ccccc21)c1ccc(Cl)c(Cl)c1 (stereo not drawn)
54.3
